- experimental.target: PDK1 (Homo sapiens (Human), UniProt O15530)
- Sequence (O15530 51-359): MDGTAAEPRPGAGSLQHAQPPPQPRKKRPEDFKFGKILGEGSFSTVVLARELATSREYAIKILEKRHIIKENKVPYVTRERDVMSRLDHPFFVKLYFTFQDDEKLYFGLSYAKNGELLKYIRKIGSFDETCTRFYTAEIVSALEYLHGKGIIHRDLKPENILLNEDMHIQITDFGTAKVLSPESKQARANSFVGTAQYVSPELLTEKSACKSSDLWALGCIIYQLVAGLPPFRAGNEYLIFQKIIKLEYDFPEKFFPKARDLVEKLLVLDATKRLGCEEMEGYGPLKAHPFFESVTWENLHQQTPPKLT
- protocol.text: PDK1 kinase assay (coupled PDK1/AKT/FAM-crosstide assay, IMAP fluorescence polarization)
- Assay type: biochemical
- study.conditions: inhibition of phospo-PDK1 in vitro
pIC50: −log10 of the molar value. Counter-ions that a name gives are not always drawn.
measurement.label: pIC50

{"compound": "Nc1ncnc2ccc(-c3ccc(CNc4ncccc4C(=O)Nc4ccc(Cl)c(F)c4)s3)cc12 [Example 3.55, (TFA salt)]", "experimental.target": "PDK1 (Homo sapiens (Human), UniProt O15530)", "pIC50": "6.00 to 7.00"}

**Q:** Which pIC50 value belongs to Nc1ncnc2ccc(-c3ccc(CNc4ncccc4C(=O)NCc4ccc(F)c(F)c4F)s3)cc12 [Example 3.16, (TFA salt)] ?
**A:** > 7.00

**Q:** Which pIC50 value belongs to CCc1nc(C)c(/C=C2\C(=O)Nc3cc(/C=C/CNc4ncccc4C(=O)NCc4ccc(F)c(F)c4)ccc32)[nH]1 ?
**A:** > 7.00

**Q:** Which pIC50 value belongs to Nc1ncnc2ccc(-c3ccc(CNc4ncc(NS(=O)(=O)C(F)(F)F)cc4C(=O)NCc4ccc(F)c(F)c4)s3)cc12 ?
**A:** 6.00 to 7.00

**Q:** Which pIC50 value belongs to C[C@H](NC(=O)c1cc(F)cnc1NCc1ccc(-c2cc3c(N)ncnc3cn2)s1)c1ccc(F)cc1 ?
**A:** 6.00 to 7.00

* * *

- experimental.target: PDK1 (Homo sapiens (Human), UniProt O15530)
- protocol.text: PDK1 kinase assay (coupled PDK1/AKT/FAM-crosstide assay, IMAP fluorescence polarization)
- Type: biochemical
- study.conditions: inhibition of phospo-PDK1 in vitro
pIC50: −log10 of the molar value. Where a name gives a salt, the structure may show the parent alone.
measurement.label: pIC50

Example cases with answers are listed next.
{"compound": "O=C(NCc1ccc(F)c(F)c1)c1cccnc1NCc1csc(-c2ccc3ncnc(NC4CC4)c3c2)n1", "val": "> 7.00"}
{"compound": "C[C@H](NC(=O)c1nccnc1NCc1ccc(-c2ccc3ncnc(N)c3c2)s1)c1ccc(F)c(F)c1 [Example 3.77, (TFA salt)]", "val": "> 7.00"}
{"compound": "CN(C)/C=N/c1cnc(NCc2ccc(-c3ccc4ncnc(N)c4c3)s2)c(C(=O)NCc2ccc(F)c(F)c2)c1", "val": "6.00 to 7.00"}

**Q:** Which pIC50 value belongs to C[C@@H](c1ccc(F)cc1)n1cnc2ccnc(NCc3ccc(-c4ccc5ncnc(N)c5c4)s3)c2c1=O ?
**A:** > 7.00

**Q:** Which pIC50 value belongs to CNS(=O)(=O)c1cnc(NCc2ccc(-c3ccc4ncnc(N)c4c3)s2)c(C(=O)N[C@@H](C)c2ccc(F)cc2)c1 ?
**A:** 6.00 to 7.00

**Q:** Which pIC50 value belongs to Cn1cnc2cnc(-c3ccc(CNc4nc5c(cc4C(=O)NCc4ccc(F)c(F)c4)CCC5)s3)cc21 ?
**A:** < 5.30

**Q:** Which pIC50 value belongs to Nc1ncnc2ccc(-c3ccc(CNc4ncccc4C(=O)NCc4cc(F)c(F)cc4F)s3)cc12 [Example 3.11, (TFA salt)] ?
**A:** > 7.00

**Q:** Which pIC50 value belongs to Nc1ncnc2ccc(-c3ccc(CNc4ncccc4C(=O)NCc4cccc(Cl)c4)s3)cc12 [Example 3.27, (TFA salt)] ?
**A:** 6.00 to 7.00

**Q:** Which pIC50 value belongs to Cc1ncc(CNC(=O)c2cccnc2NCc2ccc(-c3ccc4ncnc(N)c4c3)s2)cc1F [Example 3.67, (TFA salt)] ?
**A:** 5.30 to 6.00

**Q:** Which pIC50 value belongs to C[C@H](NC(=O)c1cccnc1NCc1ccc(-c2ccc3ncncc3c2)s1)c1ccc(F)cc1 ?
**A:** 6.00 to 7.00

**Q:** Which pIC50 value belongs to NC(=O)c1cnc(NCc2ccc(-c3ccc4ncnc(N)c4c3)s2)c(C(=O)NCc2ccc(F)c(F)c2)c1 ?
**A:** > 7.00

**Q:** Which pIC50 value belongs to Cn1cnc2cnc3ccc(-c4ccc(CNc5ncccc5C(=O)NCc5ccc(F)c(F)c5)s4)cc3c21 ?
**A:** > 7.00

**Q:** Which pIC50 value belongs to CC(C)Oc1cc(CNc2ncccc2C(=O)NCc2ccc(F)c(F)c2)cc(-c2ccc3ncnc(N)c3c2)c1 ?
**A:** > 7.00

* * *

Measured EC50 accompanies every entry in the list below.
- Tested on: phospho-akt (Thr308) in PC-3 cells
- protocol.text: Inhibition of phospho-akt (Thr308) in PC-3 cells, MSD phospho-akt 308 ELISA kit
- Assay type: cell-based
- study.conditions: Homo sapiens; inhibition of P308 Akt in PC-3 cells using MSD, 2 hours, no serum; read-out: EC50

{"structure.notation": "N#Cc1cnc(NCc2ccc(-c3ccc(N)nc3)cc2)c(C(=O)NCc2cncc(F)c2)c1", "EC50": "< 1 µM"}
{"structure.notation": "Nc1ncc(-c2ccc(CNc3ncc(C(F)(F)F)cc3C(=O)Nc3ccc(F)cc3)cc2)nc1O[C@H]1CCC[C@@H]1N", "EC50": "1 to 10 µM"}

Pending molecule:
**Q:** Which EC50 value belongs to C[C@H](NC(=O)c1cc(C#N)cnc1Nc1ccc(-c2cnc3[nH]nc(N)c3c2)cc1)c1ccc(F)cc1 ?
**A:** 1 to 10 µM

* * *

- experimental.target: UniProt:O15530
- protocol.text: PDK1 kinase assay (coupled PDK1/AKT/FAM-crosstide assay, IMAP fluorescence polarization)
- Format: biochemical
- study.conditions: inhibition of phospo-PDK1 in vitro
measurement.label: IC50

{"compound": "O=C(NCc1ccc(F)c(F)c1)c1cccnc1NCc1ccc(-c2c[nH]c3ncccc23)s1 [Example 1.17]", "val": "100 to 1000 nM"}

**Q:** Which IC50 value belongs to CC(C)n1cc(-c2ccc(CNc3ncc(C(F)(F)F)cc3C(=O)Nc3ccc(F)cc3)cc2)c2c(N)ncnc21 [Example 442] ?
**A:** < 100 nM

**Q:** Which IC50 value belongs to Cc1[nH]c(/C=C2\C(=O)Nc3cc(/C=C/CNc4ncccc4C(=O)NCc4ccc(F)c(F)c4)ccc32)c(C)c1C(=O)O [Example 15.6] ?
**A:** > 5000 nM

**Q:** Which IC50 value belongs to O=C(NCc1ccc(C(F)(F)F)cc1)c1cccnc1NCc1cccc(-c2c[nH]c3ncccc23)c1 [Example 1.7] ?
**A:** 1000 to 5000 nM

* * *

- System: phospho-akt (Thr308) in PC-3 cells
- protocol.text: Inhibition of phospho-akt (Thr308) in PC-3 cells, MSD phospho-akt 308 ELISA kit
- Type: cell-based
- study.conditions: Homo sapiens; inhibition of P308 Akt in PC-3 cells using MSD, 2 hours, no serum; read-out: EC50
Measured EC50 accompanies every entry in the list below.

Example cases with answers are listed next.
{"structure.notation": "C[C@H](NC(=O)c1nc(C#N)cnc1NCc1ccc(-c2cnc(N)c(O[C@@H]3CCNC3)n2)cc1)c1ccc(F)c(F)c1", "experimental.target": "phospho-akt (Thr308) in PC-3 cells", "EC50": "< 1000 nM"}
{"structure.notation": "C[C@H](NC(=O)c1cc(C#N)cnc1NCc1ccc(-c2cnc(N)c(C(=O)NC3CC3)n2)cc1)c1ccc(F)cc1", "experimental.target": "phospho-akt (Thr308) in PC-3 cells", "EC50": "< 1000 nM"}

**Q:** Which EC50 value belongs to Nc1cccc(-c2nc(-c3ccc(CNc4ncc(C(F)(F)F)cc4C(=O)Nc4ccc(F)cc4)cc3)cnc2N)c1 ?
**A:** 1000 to 10000 nM

**Q:** Which EC50 value belongs to Nc1ncc(-c2ccc(CNc3ncc(C(F)(F)F)cc3C(=O)Nc3ccc(F)cc3)cc2)nc1N1CCC[C@@H](N)C1 ?
**A:** 1000 to 10000 nM

**Q:** Which EC50 value belongs to C[C@H](NC(=O)c1nc(C#N)cnc1NCc1ccc(-c2cnc3[nH]ncc3c2)cc1)c1ccc(F)c(F)c1 ?
**A:** < 1000 nM

**Q:** Which EC50 value belongs to CNc1ncc(-c2ccc(CNc3ncc(C#N)cc3C(=O)N[C@@H](C)c3ccc(F)cc3)cc2)cc1F ?
**A:** > 10000 nM

**Q:** Which EC50 value belongs to C[C@H](NC(=O)c1cc(C#N)cnc1NCc1ccc(-c2cnc(N)c(C(N)=O)c2)cc1)c1ccc(F)cc1 ?
**A:** < 1000 nM

**Q:** Which EC50 value belongs to CCCn1cc(-c2ccc(CNc3ncc(C(F)(F)F)cc3C(=O)Nc3ccc(F)cc3)cc2)c2c(N)ncnc21 ?
**A:** 1000 to 10000 nM

**Q:** Which EC50 value belongs to C[C@H](NC(=O)c1cc(C#N)cnc1NCc1ccc(-c2cnc(N)c(O[C@@H]3CCNC3)n2)cc1)c1ccc(F)cc1 ?
**A:** < 1000 nM
